System: DLD-1
assay: NCI tumour cell line growth inhibition, 48 h
The source made the active and inactive calls. Cut-off read from the data, not from the text of the source: active = GI50 up to about 1.1 µM and inactive = higher.
measuredParameter: GI50

compound	measuredParameter	result
COC(=O)C1CC2(c3ccccc3)C(=O)c3ccccc3N2O1 (stereo unspecified)	GI50	78.7 µM (inactive)
CC1COC(C)(C)P(=O)(c2ccccc2)C1 (stereo unspecified)	GI50	> 100 µM (inactive)
O=S1(=O)N2CN3CN(C2)CN1C3	GI50	33.4 µM (inactive)
CC1=NN(C(=O)c2ccc(Cl)cc2)C(=O)/C1=C/c1cccc([N+](=O)[O-])c1	GI50	> 100 µM (inactive)

Record `COc1ccc(/C=N/Nc2nc(C)c3c(n2)Nc2ccccc2NC3=O)cc1` . Reported GI50: > 100 µM (inactive)

Record `O=c1c2c([nH]c3cc4c(cc13)OCO4)-c1ccccc1C2` . Reported GI50: 23.5 µM (inactive)

* * *

System: K562
assay: NCI tumour cell line growth inhibition, 48 h
The source made the active and inactive calls. Cut-off read from the data, not from the text of the source: active = GI50 up to about 1.1 µM and inactive = higher.
// allowed return values: active, inactive

Field: outcome | Entry: `COc1ccc2c(c1)[n+]([O-])c(C(=O)CC(=O)C(=O)Nc1cccc(C)c1C)c(C)[n+]2[O-]`
inactive

Field: outcome | Entry: CCOC(=O)CCC(=O)C1c2cccc(O)c2C(=O)c2c(O)cc(C)cc21 (centres undefined)
active

Field: outcome | Entry: `COc1cc(/C=C2\CCc3ccccc3C2=O)ccc1O`
inactive

Field: outcome | Entry: COc1cc(/C=C2\CCC(C)C3=C2NC(=S)NC3c2cc(OC)c(OC)c(OC)c2)cc(OC)c1OC (centres undefined)
inactive

Field: outcome | Entry: CCOC(=O)C1=C(c2ccccc2)C12N(Cc1ccccc1)C(=O)C2(c1ccccc1)c1ccccc1 (centres undefined)
inactive

Field: outcome | Entry: `COC(=O)Cc1cc(=O)n2c([nH]c3ccccc32)c1C#N`
inactive

Field: outcome | Entry: COC(=O)[C@]1(C)CCCC2(C)C1CC[C@H]1C=C(C)[C@H]3CCC12C3 (some centres undefined)
inactive

Field: outcome | Entry: `O=CC1=C(C(=O)OC(c2ccccc2)c2ccccc2)N2C(=O)[C@@H](NC(=O)Cc3cccs3)[C@H]2SC1`
inactive

Field: outcome | Entry: `O=C(Nn1c(-c2ccccc2)nc2ccccc2c1=O)c1ccc(O)cc1`
inactive

* * *

Recorded GI50, one value per entry.
System: MOLT-4
assay: NCI tumour cell line growth inhibition, 48 h
Active and inactive are the calls of the source. Cut-off read from the data, not from the text of the source: active = GI50 up to about 1.1 µM and inactive = higher.

Some molecules with recorded GI50:
molecule	result
O=C1NC(c2c(Cl)cccc2Cl)Nc2ccccc21 (stereo not given)	47.6 µM (inactive)
CC(=O)OCC1OC(n2c(-c3ccccc3)c(/N=N/c3ccccc3)c(C)c(C#N)c2=S)C(OC(C)=O)C(OC(C)=O)C1OC(C)=O (stereo not given)	> 100 µM (inactive)
COC(=O)/C(C#N)=C1\NC(=O)CC(c2ccccc2)C1C#N (stereo not given)	> 100 µM (inactive)
CN1CCN([C@H]2C[C@H]3[C@@H]4CC=C5C[C@@H](O)CC[C@]5(C)[C@H]4CC[C@]3(C)[C@H]2O)CC1	49.7 µM (inactive)

Fill in: MOLT-4 GI50 for `Cc1ccc(N2C(=O)/C(=C3\Sc4c(nc(C)n(C)c4=O)N3c3ccccc3)SC2=S)cc1` = > 100 µM (inactive)

Fill in: MOLT-4 GI50 for `CC(=O)N1CC(C)(C)c2c(C)c(O)c(C)c(C)c21` = > 100 µM (inactive)

Fill in: MOLT-4 GI50 for OC1COC(OCc2ccccc2)C(O)C1O (stereo not given) = > 100 µM (inactive)

Fill in: MOLT-4 GI50 for `CC(=O)c1ccc(NC(=O)/C(CC(=O)c2sc(-c3cccnc3)nc2C)=N/NC(N)=O)cc1` = 19.3 µM (inactive)

Fill in: MOLT-4 GI50 for `CC(=S)NNC(=O)c1ccncc1` = > 100 µM (inactive)

Fill in: MOLT-4 GI50 for `CC1(C)C=C(N2CCN(C3=CC(C)(C)NC(C)(C)C3)CC2)CC(C)(C)N1` = > 100 µM (inactive)

* * *

Test system: MDA-MB-231
assay: NCI tumour cell line growth inhibition, 48 h
The source made the active and inactive calls. No stated cut-off is given here; in the data, active = GI50 up to about 1.1 µM and inactive = higher.
// allowed return values: active, inactive

Below are worked cases with known answers.
compound	testTarget	assignedClass
Nn1c(Cc2ccc(Cl)cc2)n[nH]c1=O	MDA-MB-231	inactive
Cc1cc(Cl)ccc1NC(=O)/C(Cl)=C(/Cl)C(=O)O	MDA-MB-231	inactive
CCOC(=O)[C@H](O)[C@@H](O)C(=O)NCc1ccc(C(=O)c2ccccc2)cc1	MDA-MB-231	inactive
O=[N+]([O-])c1ccc(Cl)c(/C=N/C23CC4CC(CC(C4)C2)C3)c1	MDA-MB-231	inactive
CCCCC(=O)Nc1ccc2cc(C(=O)OC)c(ON3C(=O)c4ccccc4C3=O)nc2n1	MDA-MB-231	inactive
CC1=CC=CC(C)(C)CC1(O[Si](C)(C)C)C(F)(F)F (stereo not given)	MDA-MB-231	inactive
CCOC(=O)c1c(N2CCOCC2)[nH]c(=O)c(C(c2c(Cl)cccc2Cl)c2c(O)c(C(=O)OCC)c(N3CCOCC3)[nH]c2=O)c1O	MDA-MB-231	inactive
CCCC(=O)Nc1cc(C(=O)N2C[C@H]3C[C@@]34C2=CC(=O)c2[nH]cc(C)c24)n(COC)c1	MDA-MB-231	active

Field: outcome | Entry: `COc1cccc(-c2nc(O)c3ccccc3n2)c1`
inactive

Field: outcome | Entry: COc1ccc2cc(C(C)C(=O)N3C(=O)OCC3(C)C)ccc2c1 (stereo not given)
inactive

* * *

Recorded GI50, one value per entry.
Test system: LXFL 529
assay: NCI tumour cell line growth inhibition, 48 h
Active and inactive are the calls of the source. Rule as the data show it: active = GI50 up to about 1.1 µM and inactive = higher.

molecule	GI50
COC(=O)C1=C(C(=O)OC)SC(=C(/N=N/c2ccccc2)c2ccccc2)S1	58.5 µM (inactive)
COC(=O)[C@]1(C)CCCC2(C)C1CC[C@H]1C=C(C)[C@H]3CCC12C3 (stereo not given in full)	> 100 µM (inactive)
O=C1c2cccc3cccc(c23)C(=O)N1CCN(CCO)CCO	32.3 µM (inactive)
COc1nc(N)c(NC(C)=O)c(=O)n1C	> 100 µM (inactive)

Here's the next entry for you.
Record `CN1C(=N\S(=O)(=O)c2ccc(Cl)cc2)/C(=N/N=P(c2ccccc2)(c2ccccc2)c2ccccc2)c2ccccc21` . Reported GI50: > 100 µM (inactive)

* * *

Test system: CAKI-1
assay: NCI tumour cell line growth inhibition, 48 h
Calls of active or inactive are those of the source. No stated cut-off is given here; in the data, active = GI50 up to about 1.1 µM and inactive = higher.
measuredParameter: GI50

Some compounds with recorded GI50:
compound	GI50
CC1C2CC(CC(=O)N2)C1(C)C (stereo unspecified)	> 100 µM (inactive)
Oc1ccc(CCc2cc(O)cc(O)c2)cc1 [DIHYDRORESVERATROL]	> 100 µM (inactive)
COc1ccccc1C1C2=C(COC2=O)Oc2cc3c(cc21)OCO3 (stereo unspecified)	3.55 µM (inactive)

Here's the next entry for you.
Record `N#Cc1c(-c2ccccc2)cc(Nc2cccc(C(F)(F)F)c2)n2c1nc1ccccc12` . Reported GI50: 1.91 µM (inactive)

* * *

Recorded GI50, one value per entry.
System: BT-549
assay: NCI tumour cell line growth inhibition, 48 h
Structures can show the parent of a compound that is named as a salt. The source made the active and inactive calls. Rule as the data show it: active = GI50 up to about 1.1 µM and inactive = higher.

Some compounds with recorded GI50:
compound	GI50
Cc1ccc(NC(=O)/C=C/c2ccccc2)c(C)c1	> 100 µM (inactive)
CCOC(=O)C1C[C@H]2CO[C@H](c3ccccc3)N2C1=O (stereo partly specified)	> 100 µM (inactive)

Record `CC(=O)c1sc2n(C)c(=O)c3ccccc3[n+]2c1C` . Reported GI50: > 100 µM (inactive)

Record O=C1c2c(O)cccc2-c2nn(CCNCCO)c3ccc(NCCNCCO)c1c23 [LOSOXANTRONE HYDROCHLORIDE] . Reported GI50: 0.182 µM (active)

Record `O=[N+]([O-])C(C(Cl)=C(Cl)Cl)=C(n1nnc2ccccc21)n1nnc2ccccc21` . Reported GI50: > 51.1 µM (inactive)

Record `NC(=S)N/N=C1\NC(=O)/C(=C/c2ccc3c(c2)OCO3)S1` . Reported GI50: 25.1 µM (inactive)

* * *

System: U-251
assay: NCI tumour cell line growth inhibition, 48 h
The source made the active and inactive calls. Rule as the data show it: active = GI50 up to about 1.1 µM and inactive = higher.
// allowed return values: t (active), f (inactive)

Below are worked cases with known answers.
compound	testTarget	assignedClass
CC(C)(C)OC(=O)NC(Cc1ccc(OCc2ccccc2)cn1)C(=O)NCc1ccccc1 (centres undefined)	U-251	f
O=c1ccn(C2OC(CO)C(P(=O)(O)O)C2O)c(=O)[nH]1 (centres undefined)	U-251	f
CN1CCN([C@H]2C[C@H]3[C@@H]4CC=C5C[C@@H](O)CC[C@]5(C)[C@H]4CC[C@]3(C)[C@H]2O)CC1	U-251	f
COc1ccc2c(c1)C(N)=C(c1ccccc1)C2=O	U-251	f
CCc1cccc(=O)c([O-])c1.CCc1cccc(=O)c([O-])c1.[Bi+3].[Cl-]	U-251	f
COc1cc(/C=C2\CCC(C)C3=C2NC(=S)NC3c2cc(OC)c(OC)c(OC)c2)cc(OC)c1OC (centres undefined)	U-251	f

Field: outcome | Entry: `COc1ccc2c(c1)[n+]([O-])c(C(=O)CC(=O)C(=O)Nc1cccc(C)c1C)c(C)[n+]2[O-]`
f

Field: outcome | Entry: `CSc1nc(-c2cc3c(c(SC)n2)CCCCC3)cc2c1CCCCC2`
f

Field: outcome | Entry: CCOC(=O)C(C)NC(=O)N(C)C12CC3CC(CC(C3)C1)C2 (centres undefined)
f

Field: outcome | Entry: `CCOC(=O)[C@H](O)[C@@H](O)C(=O)NCc1ccc(C(=O)c2ccccc2)cc1`
f

Field: outcome | Entry: C=C(Cl)C(Cl)(CBr)CCC(Cl)C(C)C (centres undefined)
t

Field: outcome | Entry: `Cc1cc(Cl)ccc1NC(=O)/C(Cc1nc2ccc(C(=O)c3ccccc3)cc2nc1O)=N/NC(=O)c1ccncc1`
f
